# TARGET DESC: Insulin-degrading enzyme (Homo sapiens)
# EXPERIMENT NOTES: inhibitors of IDE decapeptide proteolysis, dose response, counter-screen for IDE exo-site inhibitor project, biochemical, kinetic mode (AID 1259348);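 as to z-score: purified IDE bound to fluorescein-labelled 6b probe FL-6b at the exo-site; test concentration not given here; probe displacement lowers polarization so hits show a drop in FP signal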
# ASSAY CONDITIONS: purified human IDE, fluorogenic decapeptide proteolysis, measured here: primary FP probe displacement screen, stronger effect = lower value
Entries whose z-score is below -5 take satisfied; entries at or above -5 take not satisfied.

Request: z-score strictly < -5 for this molecule? Cc1ccccc1-c1ccc([C@@H]2[C@@H](CO)N3CCCCN(C(=O)Cc4ccccn4)C[C@@H]23)cc1
Response: satisfied

Request: Does Cc1ccccc1-c1ccc([C@@H]2[C@@H](CO)N3CCCCN(C(=O)NC4CCCC4)C[C@H]23)cc1 have z-score strictly under -5?
Response: satisfied

Request: I'd appreciate it if you could check whether COCC(=O)N1CCCCN2[C@H](CO)[C@@H](c3ccc(-c4cccc(C)c4)cc3)[C@@H]2C1 has z-score smaller than -5.
Response: satisfied

Request: Given the entry COc1ccccc1-c1ccc([C@H]2[C@@H](CO)N3CCCCN(C(=O)c4ccncc4)C[C@H]23)cc1 , would its reported z-score be below -5?
Response: satisfied

Request: Report whether reported z-score is lower than -5 (strictly) for Cc1ccccc1-c1ccc([C@H]2[C@@H](CO)N3CCCCN(CC4CC4)C[C@@H]23)cc1
Response: not satisfied

Request: Does Cc1ccccc1-c1ccc([C@H]2[C@@H](CO)N3CCCCN(S(=O)(=O)c4ccc(F)cc4)C[C@@H]23)cc1 have z-score strictly under -5?
Response: not satisfied

Request: Problem: For the molecule Cc1ccccc1-c1ccc([C@@H]2[C@H](CO)N3CCCCN(C(=O)Cc4ccccn4)C[C@@H]23)cc1 , is z-score under -5?
Response: satisfied

Request: In plain terms, does CCCNC(=O)N1CC(=O)N2[C@@H](CO)[C@H](c3ccc(-c4cccc(C)c4)cc3)[C@@H]2C1 come in under -5 for z-score?
Response: satisfied

* * *

# TARGET DESC: Insulin-degrading enzyme (Homo sapiens)
# EXPERIMENT NOTES: inhibitors of IDE decapeptide proteolysis, dose response, counter-screen for IDE exo-site inhibitor project, biochemical, kinetic mode (AID 1259348)
# ASSAY CONDITIONS: purified human IDE, fluorogenic decapeptide proteolysis
What IC50 was measured for each of the following?

Request: What value of IC50 has been reported for the following molecule? Cc1ccccc1-c1ccc([C@H]2[C@@H](CO)N3CCCCN(C(=O)NC4CCCC4)C[C@H]23)cc1
Response: 880 nM

Request: Look up IC50: CC(C)NC(=O)N1CCCCN2[C@@H](CO)[C@H](c3ccc(C#Cc4ccccc4F)cc3)[C@@H]2C1
Response: 1200 nM

Request: Recorded IC50 for Cc1cccc(-c2ccc([C@H]3[C@@H](CO)N4CCCCN(C(=O)c5cccnc5)C[C@H]34)cc2)c1 , please?
Response: 3400 nM

Request: Would you mind telling me what IC50 value was observed for Cc1ccccc1-c1ccc([C@H]2[C@@H](CO)N3C(=O)CN(C(=O)Nc4ccc(F)cc4)C[C@H]23)cc1 ?
Response: 470 nM

Request: Could you share which IC50 value was measured for Cc1ccccc1-c1ccc([C@@H]2[C@H]3CN(C(=O)c4ccncc4)CC(=O)N3[C@H]2CO)cc1 ?
Response: 4200 nM

Request: Can you look up the measured IC50 of Cc1ccccc1-c1ccc([C@@H]2[C@H]3CN(C(=O)Cc4ccccn4)CC(=O)N3[C@H]2CO)cc1 for me?
Response: 2000 nM

Request: // query IC50 value for entry CCCNC(=O)N1CC(=O)N2[C@H](CO)[C@@H](c3ccc(-c4cccc(C)c4)cc3)[C@@H]2C1
Response: 770 nM

Request: Entry COc1cccc(C#Cc2ccc([C@@H]3[C@H](CO)N4C(=O)CN(C(C)=O)C[C@@H]34)cc2)c1 : reported IC50 = ?
Response: 3700 nM

meta.source: PubChem BioAssay AID1259348
